B1: MYOZ1 (parent)
chain: FSDSSMDHFQKFLPTVGGQLGTAG

variants of: B1; assay: protein stability index of a GFP-peptide fusion (GPS, HEK-293T) (PSI 1-6); higher = more stable; conditions: c terminus: a fixed tail appended;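 further: lentivirally expressed fusions sorted by FACS into six bins by GFP to DsRed ratio, PSI derived from sequencing read proportions per bin multiplied by bin number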
Rule: protein stability index under 2 gives not met, otherwise met.

> print(dat)
    mutation.key  category.label
 1          G24M         not met
 2          G18Q             met
 3          T15Y         not met
 4           S5E             met
 5          P14C         not met
 6          G21D             met
 7           S5W             met
 8           D7C         not met
 9           S4H             met
10          Q10V         not met
11          L20P             met
12           M6R             met
13           F9D             met
14          K11E             met
15          G21K             met
16          Q10R         not met
17          G24H             met
18           D3F         not met
19           S5K             met
20          A23F             met
21          G18F         not met
22           S4G             met
23          G21W         not met
24          G17F         not met
25          G17I             met
26           H8F         not met
27          V16R             met
28          L13E             met
29          F12P             met
30          Q19R             met
31          T22P             met
32          Q19W             met
33          V16N             met
34           H8Q             met
35          T15N         not met
36          Q19V         not met
37          L13N             met
38          P14T             met
39           S2E             met
40          L13P             met
41           S2P             met
42          G17R         not met
43           F1M             met
44           M6W         not met
45          G17L         not met
46          Q10G             met
47           M6P             met
48           D7M         not met
49          A23M         not met
50          L20V             met
51          L20D             met
52          G18M             met
53           S5H             met
54          K11S             met
55           D7R             met
56          K11N             met
57           S2M             met
58           S5D             met
59          A23K             met
